System: Acinetobacter baumannii NCTC 13304 (OXA-27)
Type: cell-based
measurement.parameters: NCTC 13304
Description: The minimal inhibitory concentration (MIC) was determined by the broth microdilution method according to the recommended procedures of the Clinical and Laboratory Standards Institute (CLSI). An appropriate amount of the cyclic lipopeptide compounds prepared in Examples 1-120 and the reference standards were weighed and dissolved in sterile pure water. […]
Bridge positions count the residues as written; N and C are the ends. Square brackets hold non-standard residues; d marks the D form. Peptide text beside a SMILES is read from it. * marks the point of attachment. Heptanoyl(6-Me) = CC(C)CCCCC(=O)*; Nonanoyl = CCCCCCCCC(=O)*; Heptanoyl = CCCCCCC(=O)*; Orn = NCCC[C@H](N)C(=O)O; Dab = NCC[C@H](N)C(=O)O; Dap = NC[C@H](N)C(=O)O
parameter.measured: MIC (mg/L)
Value expressed in mg/L; do not type the unit.

Past entries and their recorded results:
[[record]]
molecule = "CCCCCCC(=O)N[C@@H](CCN)C(=O)N[C@H](C(=O)N[C@H](CO)C(=O)N[C@H]1CCNC(=O)[C@H]([C@@H](C)O)NC(=O)[C@H](CCN)NC(=O)[C@H](CCCN)NC(=O)[C@H]([C@@H](C)O)NC(=O)[C@@H](Cc2ccccc2)NC(=O)[C@H](CCN)NC1=O)[C@@H](C)O [Compound 79] (Heptanoyl-[Dab]T[dS][Dab][Dab][dF]T[Orn][Dab]T; lactam 4-C)"
subject_of_test = "Acinetobacter baumannii NCTC 13304 (OXA-27)"
parameter_measured = "MIC"
output_unit = "mg/L"
recorded_measurement = 0.03

[[record]]
molecule = "CC(C)CCCCC(=O)N[C@@H](CCN)C(=O)N[C@H](C(=O)N[C@@H](CN)C(=O)N[C@H]1CCNC(=O)[C@H]([C@@H](C)O)NC(=O)[C@H](CCN)NC(=O)[C@H](CCN)NC(=O)[C@H](CC(C)C)NC(=O)[C@@H](Cc2ccccc2)NC(=O)[C@H](CCN)NC1=O)[C@@H](C)O [Compound 37] ({Heptanoyl(6-Me)}-[Dab]T[Dap][Dab][Dab][dF]L[Dab][Dab]T; lactam 4-C)"
subject_of_test = "Acinetobacter baumannii NCTC 13304 (OXA-27)"
parameter_measured = "MIC"
output_unit = "mg/L"
recorded_measurement = 0.03


Item CCCCCCCCC(=O)N[C@@H](CN)C(=O)N[C@H](C(=O)N[C@H](CO)C(=O)N[C@H]1CCNC(=O)[C@H]([C@@H](C)O)NC(=O)[C@H](CCN)NC(=O)[C@H](CCN)NC(=O)[C@H]([C@@H](C)O)NC(=O)[C@@H](Cc2ccccc2)NC(=O)[C@H](CCN)NC1=O)[C@@H](C)O [Compound 55] (Nonanoyl-[Dap]T[dS][Dab][Dab][dF]T[Dab][Dab]T; lactam 4-C) has what recorded MIC? 0.25
